SYSTEM: PDF enzyme (Streptococcus pneumoniae serotype 4)
Sequence (Q9F2F0 whole entry): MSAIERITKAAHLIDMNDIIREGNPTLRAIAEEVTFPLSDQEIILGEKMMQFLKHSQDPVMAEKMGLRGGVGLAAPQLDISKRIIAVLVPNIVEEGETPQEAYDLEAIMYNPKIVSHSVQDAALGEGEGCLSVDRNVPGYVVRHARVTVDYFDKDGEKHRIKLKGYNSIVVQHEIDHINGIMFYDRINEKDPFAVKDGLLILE
MEASURED_ENDPOINT: IC50 (nM)
Supply the numeric figure in nM, leaving out any unit text.

Observe how each entry below is paired with its result.
INSERT INTO assay_data (smiles_record, quantitative_readout) VALUES
  ('CC(C)(C)[C@H](NC(=O)[C@H](CC1CCCC1)CN(O)C=O)C(=O)N1CCC(NCc2cc(=O)c(O)co2)CC1', 50),
  ('CC(C)(C)[C@H](NC(=O)[C@H](CC1CCCC1)CN(O)C=O)C(=O)N1CCC(NCc2ccc(F)cc2F)CC1', 55),
  ('Cc1ccc(CNC2CCN(C(=O)[C@@H](NC(=O)[C@H](CC3CCCC3)CN(O)C=O)C(C)(C)C)CC2)cc1', 77);

**Q:** Tell me the measured IC50 of CC(C)(C)[C@H](NC(=O)[C@H](CC1CCCC1)CN(O)C=O)C(=O)N1CCC(NCc2ccc(O)cc2)CC1 , please.
**A:** 42

**Q:** Next molecule: CC(C)(C)[C@H](NC(=O)[C@H](CC1CCCC1)CN(O)C=O)C(=O)N1CCC(NCc2ccco2)CC1
**A:** 42

**Q:** Lookup CN(c1ccccc1)C1CCN(C(=O)[C@@H](NC(=O)[C@H](CC2CCCC2)CN(O)C=O)C(C)(C)C)CC1
**A:** 25

**Q:** Check Cc1ccc(CNC2CCN(C(=O)[C@@H](NC(=O)[C@@H](CC(=O)NO)CC3CCCC3)C(C)(C)C)CC2)cc1 too.
**A:** 65
